B1: Subtilisin BPN', P00782 (parent)
chain: MRGKKVWISLLFALALIFTMAFGSTSSAQAAGKSNGEKKYIVGFKQTMSTMSAAKKKDVISEKGGKVQKQFKYVDAASATLNEKAVKELKKDPSVAYVEEDHVAHAYAQSVPYGVSQIKAPALHSQGYTGSNVKVAVIDSGIDSSHPDLKVAGGASMVPSETNPFQDNNSHGTHVAGTVAALNNSIGVLGVAPSASLYAVKVLGADGSGQYSWIINGIEWAIANNMDVINMSLGGPSGSAALKAAVDKAVASGVVVVAAAGNEGTSGSSSTVGYPGKYPSVIAVGAVDSSNQRASFSSVGPELDVMAPGVSIQSTLPGNKYGAYNGTSMASPHVAGAAALILSKHPNWTNTQVRSSLENTTTKLGDSFYYGKGLINVQAAAQ

Variants of: B1
Conditions: Bacillus amyloliquefaciens; pH 8; Thermal; DSC; Tris-HCl 5.0 mM; KCl 50 mM; reversible: yes; structure 1SUP; whole UniProt chain shown
MEASURED_PARAMETER: Tm (°C)
Number only, in °C; omit the unit.

Reference set (4 entries):
| MUTANT_ID | Tm / °C |
| --- | --- |
| Q313C | 63.2 |
| N325S | 62.5 |
| G276A | 59.6 |
| N183D | 60.2 |

For this variant ( M157F ), measured Tm is 60.3
